The reader will find reported PBM binding z-score values listed item by item below.
tested on: VDR homodimer (NR concentration 270 nM); experiment: PBM binding z-score (relative to random genomic background probes); higher = stronger binding; sequences stand for … in GC…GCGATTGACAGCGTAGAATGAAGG
Please reply with the number alone, leaving off any unit.

Known PBM binding z-score results, listed for orientation:
1) CCGAGTAAGTTACGAGGGGGCATTCAGTGCGAAT: 2.59
2) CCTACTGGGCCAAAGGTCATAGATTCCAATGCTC: 2.27
3) CGAACTAGGTAAAAGGACAGTGAAAGGCGACGTA: -0.349
4) TCGCGTAGGTTACGGGGGCATTCAGGGATGAAGA: 2.44
5) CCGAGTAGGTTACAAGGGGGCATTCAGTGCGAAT: 3.51
6) TCTCGGATGACACGAAAGGTCAGAGCTCGACATC: 0.594

Q. What value of measured PBM binding z-score is listed for CGAACTAAGTCACCAGGACAGTGAAGAGGTTGGA ?
A. 0.106

Q. # lookup: PBM binding z-score of CTATGAAGGTTAAGGGGGTCATTCAGTTTGAAAG
A. 6.88

Q. Request the reported PBM binding z-score associated with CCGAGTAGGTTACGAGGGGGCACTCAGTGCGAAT
A. 2.68

###

tested on: RARg homodimer (NR concentration 270 nM); assay: PBM binding z-score (relative to random genomic background probes); higher = stronger binding; sequences stand for … in GC…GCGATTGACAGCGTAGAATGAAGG
measured metric: PBM binding z-score
Keep it simple and answer with nothing but the number.

1. TCGAGTAGGTTACGGGGGAATTCAGGGATGAAGA: 1.05
2. TCTCGGAGGACACGAAAGGTGAGAGCTCGACATC: 1.99
3. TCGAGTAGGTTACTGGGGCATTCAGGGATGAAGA: 0.564
4. ACTCGGAGGATAAAGGTCAGAGCTACGCCAGTGA: 4.44
5. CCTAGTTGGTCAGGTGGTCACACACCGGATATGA: 1.38

Q. Lab request: please report PBM binding z-score under test system RARg homodimer (NR concentration 270 nM) for CCTTACGGGTCTCTCCAGGTTATAGCATCGGAGT
A. 0.231

###

system: THRa homodimer (NR concentration 90 nM); test: PBM binding z-score (relative to random genomic background probes); higher = stronger binding; sequences stand for … in GC…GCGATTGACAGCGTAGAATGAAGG
measured metric: PBM binding z-score
No unit in the answer, please; the number alone is enough.

Study these solved cases before continuing.
1. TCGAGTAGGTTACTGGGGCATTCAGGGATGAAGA: -0.116
2. TCGAGTAGGTTACGGGGGCATACAGGGATGAAGA: 1.18
3. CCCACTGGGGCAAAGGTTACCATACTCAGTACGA: -0.0576

Q. Record request: PBM binding z-score value, item TCATATAGGTAATAAAGGTGAAAGTCGGCATCTA
A. 0.669

Q. Reported PBM binding z-score for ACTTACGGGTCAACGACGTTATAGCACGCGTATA : what is it?
A. 0.369

Q. # PBM binding z-score lookup, item AGAATGAGGTTAGCAAAGATCAGGGAAACGCTTG
A. 0.173

###

test system: FXR:RXRa (NR concentration 270 nM, RXRa partner concentration 90 nM); test: PBM binding z-score (relative to random genomic background probes); higher = stronger binding; sequences stand for … in GC…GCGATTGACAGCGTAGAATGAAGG
Overview of reported PBM binding z-score across a group of sequences:
Answer as a number with no unit attached.

Some solved entries appear below for comparison.
1) GATACACGGTCAAGGCCAGAGTACGCGTATTGAT: 0.0472
2) TAGCCTAGGTCATTGGGCTAGTATAGTACGCATC: 4.29
3) CGTCCAAGGTCATACGAGGTCAGTGAAGACAGAT: 7.86

Q. Entry under review: ATCGAAAGGTCGACGAGGTGAGAATACACCGTTT . Reported PBM binding z-score?
A. 5.1

Q. Param item = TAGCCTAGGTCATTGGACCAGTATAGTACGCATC ; retrieve measured PBM binding z-score.
A. 4.61

Q. For the sequence shown here, CGAACTAGGTCAGAGCAGGACAGTGAAGGATGAT , give the reported PBM binding z-score.
A. 1.33

Q. Looking for the measured PBM binding z-score of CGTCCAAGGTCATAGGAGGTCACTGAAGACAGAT , can you help?
A. 7.73

Q. What value of measured PBM binding z-score is listed for ATATGTAGGTTACATCGGGGTCATTCAGGCTATG ?
A. 4.88

Q. Query (sequence): ACTAGTTGGTCACCTGAGGTCACACACAATTCGG ; field requested: PBM binding z-score
A. 4.76

Q. Sample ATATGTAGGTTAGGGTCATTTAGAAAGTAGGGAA — what was its PBM binding z-score?
A. 4.85

Q. Which PBM binding z-score reading was recorded for the sequence CTCGAAAGGTCGTGGTCAGGTGAGTATACCAAAC ?
A. 5.9

Q. Entry under review: CGCACTAGGTCAAAGGACAGTGAAAGGCGACGTA . Reported PBM binding z-score?
A. 4.07
